Sourced from the RepoRT retention time repository (doi:10.1016/j.jhazmat.2019.121712)

- experiment_summary: Thermo Scientific Acclaim RSLC 120 C18, 100 × 2.1 mm, 2.2 µm, 30 °C; A: 90% water + 10% methanol + 0.01% formic acid + 5 mM ammonium formate; B: methanol + 0.01% formic acid + 5 mM ammonium formate; gradient (min/%B) 0.1/1 3/39 14/99.9 16/99.9
- condition_set: stereoisomer not certain
measurement_name: LC retention time

Check out these entries, answers already filled in.
| molecule | LC retention time |
| --- | --- |
| CCCCc1ncc(C=C(Cc2cccs2)C(=O)O)n1Cc1ccc(C(=O)O)cc1 | 7.49 min |
| CNC(=O)ON=CC(C)(C)S(C)(=O)=O | 3.75 min |
| C1COC(NC(C2CC2)C2CC2)=N1 | 4.4 min |
| CCOP(=S)(Oc1cnc(C(C)(C)C)nc1)OC(C)C (configuration not stated) | 12.3 min |

## Task Which LC retention time is reported for this molecule? CC(C(=O)O)c1cccc(C(=O)c2ccccc2)c1 (configuration not stated)
## Result 8.53 min

## Task Entry "CCNCC(=O)Nc1c(C)cccc1C" has what LC retention time?
## Result 4.33 min

## Task What measured LC retention time goes with CCC(c1ccccc1)c1c(O)c2ccccc2oc1=O (configuration not stated) ?
## Result 9.05 min

---

- experiment_summary: Thermo Scientific Acclaim RSLC 120 C18, 100 × 2.1 mm, 2.2 µm, 30 °C; A: 90% water + 10% methanol + 0.01% formic acid + 5 mM ammonium formate; B: methanol + 0.01% formic acid + 5 mM ammonium formate; gradient (min/%B) 0.1/1 3/39 14/99.9 16/99.9
- condition_set: stereoisomer not certain
LC retention time strictly less than 7 min = class 1. Otherwise class 0.

Below, 3 compounds whose answers are already recorded.
| compound | category |
| --- | --- |
| CCCCCn1cc(C(=O)NC(C(N)=O)C(C)(C)C)c2ccccc21 (stereo unspecified) | class 0 |
| Cc1ccc(C(=CCN2CCCC2)c2ccccn2)cc1 | class 1 |
| OC(c1ccccc1)(c1ccccc1)C1CCNCC1 | class 1 |

## Task Identify whether the compound CN1CCCC1Cc1c[nH]c2ccc(CCS(=O)(=O)c3ccccc3)cc12 (stereo unspecified) records LC retention time below 7 min.
## Result class 1

## Task Bench note: check whether "CCN(CC)CCOC(=O)C1(C2CCCCC2)CCCCC1" shows LC retention time below 7 min
## Result class 0

## Task State whether 7 min exceeds LC retention time recorded for CCOc1ccccc1OC(c1ccccc1)C1CNCCO1 (stereo unspecified) .
## Result class 0

---

- experiment_summary: Thermo Scientific Acclaim RSLC 120 C18, 100 × 2.1 mm, 2.2 µm, 30 °C; A: 90% water + 10% methanol + 0.01% formic acid + 5 mM ammonium formate; B: methanol + 0.01% formic acid + 5 mM ammonium formate; gradient (min/%B) 0.1/1 3/39 14/99.9 16/99.9
- condition_set: stereoisomer not certain
Cut-off 5 min on LC retention time: below means true, at or above means false.

Look over these answered cases.
| molecule | category |
| --- | --- |
| CCNC(C)Cc1ccccc1 (stereo unspecified) | true |
| CC(C)N(CCc1c[nH]c2cccc(O)c12)C(C)C | true |
| CCOP(=S)(OCC)SC1OCCOC1SP(=S)(OCC)OCC (stereo unspecified) | false |

## Task Just wondering, is LC retention time of COc1ccc2c(c1OC)C(=O)OC2C1c2c(cc3c(c2OC)OCO3)CCN1C (stereo unspecified) below 5 min?
## Result false

## Task Below 5 min on LC retention time? Entry "CCCCCCOC(=O)NC(=N)c1ccc(NCc2nc3cc(C(=O)N(CCC(=O)OCC)c4ccccn4)ccc3n2C)cc1"
## Result false

## Task Lab note: LC retention time threshold 5 min. Does this molecule come in strictly under it? COC(=O)CCc1ccc(OCC(O)CNC(C)C)cc1 (stereo unspecified)
## Result false

## Task Is 5 min strictly greater than the molecule's reported LC retention time? molecule: CCOC(=O)C(CCc1ccccc1)NC(C)C(=O)N1C(C(=O)O)CC2CCCCC21 (stereo unspecified)
## Result false

## Task Take the molecule CC(CN(C)C)CN1c2ccccc2CCc2ccccc21 (stereo unspecified) and say whether its LC retention time is less than 5 min.
## Result false

## Task Check if LC retention time falls below 5 min for "O=C(O)c1ccccc1C(=O)Nc1ccc(S(=O)(=O)Nc2nccs2)cc1" .
## Result true

## Task Check if LC retention time falls below 5 min for "NC(=O)N1c2ccccc2C=Cc2ccccc21" .
## Result false

## Task Regarding Cc1cc(C)cc(OCC2CNC(=O)O2)c1 (stereo unspecified) , kindly confirm whether its LC retention time is beneath 5 min.
## Result false
